# System: Mycobacterium tuberculosis
# assay: Antimycobacterial activity against Mycobacterium tuberculosis H37Rv after 5 days by resazurin-based microdilution method
# Format: functional
# study-conditions: 120 h
# Lookup of reported MIC keyed by entry

Completed entries (count: 3):
INSERT INTO assay_data (structure_notation, reported_measurement) VALUES
  ('Oc1ccc(Nc2nc(-c3cccnc3)cs2)cc1', '> 200 µM'),
  ('Cc1cccnc1Nc1nc(-c2ccc(Br)cc2)c(Br)s1', '> 200 µM'),
  ('Fc1ccc(Nc2nc(-c3cccnc3)cs2)cc1', '> 200 µM');

May I ask what MIC has been recorded for Fc1ccc(Nc2nc(-c3ccncc3)cs2)cc1 ?
25 µM

May I ask what MIC has been recorded for Cc1cccc(Nc2nc(-c3ccc(Br)cc3)c(C)s2)n1 ?
> 200 µM

May I ask what MIC has been recorded for Cc1cccnc1Nc1nc(-c2ccc(Br)cc2)c(C)s1 ?
100 µM

May I ask what MIC has been recorded for O=[N+]([O-])c1cc(Cl)ccc1Nc1nc(-c2ccccn2)cs1 ?
> 200 µM

* * *

# assay: Binding affinity to Mycobacterium tuberculosis beta-Ketoacyl-ACP Synthase
measured-quantity: pKi
In plain terms, pKi is the concentration in mol/L turned into minus its base-10 logarithm.

Completed entries (count: 2):
INSERT INTO assay_data (structure_notation, reported_measurement) VALUES
  ('Fc1ccc(Nc2nc(-c3ccc(Br)cc3)cs2)cc1', 5.89),
  ('Brc1ccc(Nc2nc(-c3ccncc3)cs2)cc1', 6.36);

Could you now look at the following compound, please?
May I ask what pKi has been recorded for Cc1cccc(Nc2nc(-c3ccncc3)cs2)n1 ?
4.52

* * *

# Lookup of reported MIC keyed by entry
# System: Mycobacterium tuberculosis
# assay: Antimycobacterial activity against Mycobacterium tuberculosis H37Rv after 5 days by resazurin-based microdilution method
# Assay type: functional
# study-conditions: 120 h

Completed entries (count: 6):
INSERT INTO assay_data (structure_notation, reported_measurement) VALUES
  ('Cc1sc(Nc2ccc(F)cc2)nc1-c1ccc(Br)cc1', '100 µM'),
  ('Cc1cccc(Nc2nc(-c3ccncc3)cs2)n1', '100 µM'),
  ('Cc1cccnc1Nc1nc(-c2ccc(Cl)c(Cl)c2)cs1', '> 200 µM'),
  ('Cc1cccnc1Nc1nc(-c2ccncc2)cs1', '> 200 µM'),
  ('Cc1sc(Nc2ccccn2)nc1-c1ccc(Br)cc1', '> 200 µM'),
  ('COc1ccc(-c2csc(Nc3cccc(C)n3)n2)cc1', '> 200 µM');

Item Oc1ccc(Nc2nc(-c3ccncc3)cs2)cc1 with Mycobacterium tuberculosis - MIC?
> 200 µM

Item O=[N+]([O-])c1cc(Cl)ccc1Nc1nc(-c2ccncc2)cs1 with Mycobacterium tuberculosis - MIC?
> 200 µM

Item COc1ccc(-c2csc(Nc3ccc(Cl)cc3[N+](=O)[O-])n2)cc1 with Mycobacterium tuberculosis - MIC?
12.5 µM

Item Fc1ccc(Nc2nc(-c3ccc(Cl)cc3)cs2)cc1 with Mycobacterium tuberculosis - MIC?
12.5 µM

Item c1ccc(Nc2nc(-c3cccnc3)cs2)nc1 with Mycobacterium tuberculosis - MIC?
> 200 µM

Item Cc1cccc(Nc2nc(-c3ccc(Cl)c(Cl)c3)cs2)n1 with Mycobacterium tuberculosis - MIC?
> 200 µM
